assay: in vivo; conditions: mouse
Recorded Endpoint: concentration at 5 min

Any idea what concentration at 5 min was measured for CC(=O)O[C@H]1C(=O)[C@@]2(C)[C@H]([C@H](OC(=O)c3ccccc3)[C@]3(O)C[C@H](OC(=O)[C@H](O)[C@@H](NC(=O)c4ccccc4)c4ccccc4)C(C)=C1C3(C)C)[C@]1(OC(C)=O)CO[C@@H]1C[C@@H]2O [Paclitaxel, paclitaxel] ?
~7000 ng/mL

* * *

assay: in vivo; details: mouse
Recorded Endpoint: concentration at 5 h (ng/mL)
Numeric only. Scale: ng/mL

Any idea what concentration at 5 h was measured for CC(=O)O[C@H]1C(=O)[C@@]2(C)[C@H]([C@H](OC(=O)c3ccccc3)[C@]3(O)C[C@H](OC(=O)[C@H](O)[C@@H](NC(=O)c4ccccc4)c4ccccc4)C(C)=C1C3(C)C)[C@]1(OC(C)=O)CO[C@@H]1C[C@@H]2O [Paclitaxel, paclitaxel] ?
200

* * *

test: clinical; type: in vivo, human; settings: human, in vivo
Recorded Endpoint: concentration at 48 h

Any idea what concentration at 48 h was measured for `Cc1ccc(C(=O)Nc2ccc(S(=O)(=O)O)c3cc(S(=O)(=O)O)cc(S(=O)(=O)O)c23)cc1NC(=O)c1cccc(NC(=O)Nc2cccc(C(=O)Nc3cc(C(=O)Nc4ccc(S(=O)(=O)O)c5cc(S(=O)(=O)O)cc(S(=O)(=O)O)c45)ccc3C)c2)c1` ?
> 10 µM

* * *

experiment: Prospective verification of the PBPK-based dosing method, plasma concentrations; assay type: in vivo, human; details: human, plasma, intravenous; Patient 3, cycle 1, BSA 1.83, dose 230 mg; read-out: Concentration, 48 hours
Recorded Endpoint: concentration at 48 h (µM)
Numeric only. Scale: µM

Any idea what concentration at 48 h was measured for Cc1ccc(C(=O)Nc2ccc(S(=O)(=O)O)c3cc(S(=O)(=O)O)cc(S(=O)(=O)O)c23)cc1NC(=O)c1cccc(NC(=O)Nc2cccc(C(=O)Nc3cc(C(=O)Nc4ccc(S(=O)(=O)O)c5cc(S(=O)(=O)O)cc(S(=O)(=O)O)c45)ccc3C)c2)c1 [suramin] ?
19.4

* * *

test: Prospective verification of the PBPK-based dosing method, plasma concentrations; type: in vivo, human; settings: human, plasma, intravenous; Patient 1, cycles 3 to 6, dose 151-156 mg; read-out: Concentration, 48 hours
Recorded Endpoint: concentration at 48 h

Any idea what concentration at 48 h was measured for `Cc1ccc(C(=O)Nc2ccc(S(=O)(=O)O)c3cc(S(=O)(=O)O)cc(S(=O)(=O)O)c23)cc1NC(=O)c1cccc(NC(=O)Nc2cccc(C(=O)Nc3cc(C(=O)Nc4ccc(S(=O)(=O)O)c5cc(S(=O)(=O)O)cc(S(=O)(=O)O)c45)ccc3C)c2)c1` ?
10.2 to 11.5 µM

* * *

experiment: in vivo; details: mouse
Recorded Endpoint: concentration at 6 h

Any idea what concentration at 6 h was measured for `CC(=O)O[C@H]1C(=O)[C@@]2(C)[C@H]([C@H](OC(=O)c3ccccc3)[C@]3(O)C[C@H](OC(=O)[C@H](O)[C@@H](NC(=O)c4ccccc4)c4ccccc4)C(C)=C1C3(C)C)[C@]1(OC(C)=O)CO[C@@H]1C[C@@H]2O` ?
< 100 ng/mL

* * *

assay: clinical; format: in vivo, human; conditions: both sexes, human, in vivo, Beta half-life
Recorded Endpoint: half-life
Give the value; after it, write the unit.

Any idea what half-life was measured for Cc1ccc(C(=O)Nc2ccc(S(=O)(=O)O)c3cc(S(=O)(=O)O)cc(S(=O)(=O)O)c23)cc1NC(=O)c1cccc(NC(=O)Nc2cccc(C(=O)Nc3cc(C(=O)Nc4ccc(S(=O)(=O)O)c5cc(S(=O)(=O)O)cc(S(=O)(=O)O)c45)ccc3C)c2)c1 [suramin] ?
11 days
